Readings of Activity for the listed molecules
# target-of-assay: Histone-lysine N-methyltransferase SMYD3 (Homo sapiens)
# experiment-notes: Inhibition of SMYD3 (unknown origin) using biotin-labeled histone substrate assessed as residual activity at 50 uM in presence of [3H-Me]SAM by scintillation proximity assay relative to control
measured-property: Activity (%)

{"columns": ["molecule", "observed-result"],
 "data": [
  ["O=C(c1cccc(Br)c1)N1CCCC2(CCCCN2)C1 (stereo not drawn)", 99],
  ["O=C(c1cccc(Br)c1)N1CCC2(CCNCC2)CC1", 96],
  ["O=C(c1cccc(Br)c1)N1CCC2CNCC2C1 (stereo not drawn)", 92],
  ["CN1CC[C@H]2CN(C(=O)c3cccc(Br)c3)C[C@H]21", 103],
  ["CN1CCCCC12CCN(C(=O)c1cccc(Br)c1)CC2", 87],
  ["O=C(c1cccc(Br)c1)N1CC[C@H]2NCC[C@H]2C1", 92],
  ["CN1CCCCC12CCCN(C(=O)c1cccc(Br)c1)C2 (stereo not drawn)", 111],
  ["O=C(c1cccc(Br)c1)N1CCCC2(CCNCC2)C1", 96],
  ["O=C(c1cccc(Br)c1)N1C[C@@H]2CC3CCCCN3[C@@H]2C1 (stereo partly drawn)", 94],
  ["CN1CCCC2(CCCN2C(=O)c2cccc(Br)c2)C1 (stereo not drawn)", 98],
  ["O=C(c1cccc(Br)c1)N1C[C@H]2CCCN[C@H]2C1", 103],
  ["CN1CCCC2(CCCN(C(=O)c3cccc(Br)c3)C2)C1 (stereo not drawn)", 85],
  ["CN1C[C@H]2CCCN(C(=O)c3cccc(Br)c3)[C@H]2C1", 93],
  ["CN1CCCC12CCN(C(=O)c1cccc(Br)c1)CC2", 108],
  ["O=C(c1cccc(Br)c1)N1CC[C@@H]2[C@@H](CC3CCCCN32)C1 (stereo partly drawn)", 92],
  ["O=C(c1cccc(Br)c1)N1C[C@@H]2CC3CCCN3[C@@H]2C1 (stereo partly drawn)", 89],
  ["CN1CCCC12CCCN(C(=O)c1cccc(Br)c1)C2 (stereo not drawn)", 87],
  ["CN1CCC2(CCCN(C(=O)c3cccc(Br)c3)C2)C1 (stereo not drawn)", 95]
]}

====

# target-of-assay: Histone-lysine N-methyltransferase, H3 lysine-36 specific (Homo sapiens) (UniProt Q96L73)
# Sequence (Q96L73 whole entry): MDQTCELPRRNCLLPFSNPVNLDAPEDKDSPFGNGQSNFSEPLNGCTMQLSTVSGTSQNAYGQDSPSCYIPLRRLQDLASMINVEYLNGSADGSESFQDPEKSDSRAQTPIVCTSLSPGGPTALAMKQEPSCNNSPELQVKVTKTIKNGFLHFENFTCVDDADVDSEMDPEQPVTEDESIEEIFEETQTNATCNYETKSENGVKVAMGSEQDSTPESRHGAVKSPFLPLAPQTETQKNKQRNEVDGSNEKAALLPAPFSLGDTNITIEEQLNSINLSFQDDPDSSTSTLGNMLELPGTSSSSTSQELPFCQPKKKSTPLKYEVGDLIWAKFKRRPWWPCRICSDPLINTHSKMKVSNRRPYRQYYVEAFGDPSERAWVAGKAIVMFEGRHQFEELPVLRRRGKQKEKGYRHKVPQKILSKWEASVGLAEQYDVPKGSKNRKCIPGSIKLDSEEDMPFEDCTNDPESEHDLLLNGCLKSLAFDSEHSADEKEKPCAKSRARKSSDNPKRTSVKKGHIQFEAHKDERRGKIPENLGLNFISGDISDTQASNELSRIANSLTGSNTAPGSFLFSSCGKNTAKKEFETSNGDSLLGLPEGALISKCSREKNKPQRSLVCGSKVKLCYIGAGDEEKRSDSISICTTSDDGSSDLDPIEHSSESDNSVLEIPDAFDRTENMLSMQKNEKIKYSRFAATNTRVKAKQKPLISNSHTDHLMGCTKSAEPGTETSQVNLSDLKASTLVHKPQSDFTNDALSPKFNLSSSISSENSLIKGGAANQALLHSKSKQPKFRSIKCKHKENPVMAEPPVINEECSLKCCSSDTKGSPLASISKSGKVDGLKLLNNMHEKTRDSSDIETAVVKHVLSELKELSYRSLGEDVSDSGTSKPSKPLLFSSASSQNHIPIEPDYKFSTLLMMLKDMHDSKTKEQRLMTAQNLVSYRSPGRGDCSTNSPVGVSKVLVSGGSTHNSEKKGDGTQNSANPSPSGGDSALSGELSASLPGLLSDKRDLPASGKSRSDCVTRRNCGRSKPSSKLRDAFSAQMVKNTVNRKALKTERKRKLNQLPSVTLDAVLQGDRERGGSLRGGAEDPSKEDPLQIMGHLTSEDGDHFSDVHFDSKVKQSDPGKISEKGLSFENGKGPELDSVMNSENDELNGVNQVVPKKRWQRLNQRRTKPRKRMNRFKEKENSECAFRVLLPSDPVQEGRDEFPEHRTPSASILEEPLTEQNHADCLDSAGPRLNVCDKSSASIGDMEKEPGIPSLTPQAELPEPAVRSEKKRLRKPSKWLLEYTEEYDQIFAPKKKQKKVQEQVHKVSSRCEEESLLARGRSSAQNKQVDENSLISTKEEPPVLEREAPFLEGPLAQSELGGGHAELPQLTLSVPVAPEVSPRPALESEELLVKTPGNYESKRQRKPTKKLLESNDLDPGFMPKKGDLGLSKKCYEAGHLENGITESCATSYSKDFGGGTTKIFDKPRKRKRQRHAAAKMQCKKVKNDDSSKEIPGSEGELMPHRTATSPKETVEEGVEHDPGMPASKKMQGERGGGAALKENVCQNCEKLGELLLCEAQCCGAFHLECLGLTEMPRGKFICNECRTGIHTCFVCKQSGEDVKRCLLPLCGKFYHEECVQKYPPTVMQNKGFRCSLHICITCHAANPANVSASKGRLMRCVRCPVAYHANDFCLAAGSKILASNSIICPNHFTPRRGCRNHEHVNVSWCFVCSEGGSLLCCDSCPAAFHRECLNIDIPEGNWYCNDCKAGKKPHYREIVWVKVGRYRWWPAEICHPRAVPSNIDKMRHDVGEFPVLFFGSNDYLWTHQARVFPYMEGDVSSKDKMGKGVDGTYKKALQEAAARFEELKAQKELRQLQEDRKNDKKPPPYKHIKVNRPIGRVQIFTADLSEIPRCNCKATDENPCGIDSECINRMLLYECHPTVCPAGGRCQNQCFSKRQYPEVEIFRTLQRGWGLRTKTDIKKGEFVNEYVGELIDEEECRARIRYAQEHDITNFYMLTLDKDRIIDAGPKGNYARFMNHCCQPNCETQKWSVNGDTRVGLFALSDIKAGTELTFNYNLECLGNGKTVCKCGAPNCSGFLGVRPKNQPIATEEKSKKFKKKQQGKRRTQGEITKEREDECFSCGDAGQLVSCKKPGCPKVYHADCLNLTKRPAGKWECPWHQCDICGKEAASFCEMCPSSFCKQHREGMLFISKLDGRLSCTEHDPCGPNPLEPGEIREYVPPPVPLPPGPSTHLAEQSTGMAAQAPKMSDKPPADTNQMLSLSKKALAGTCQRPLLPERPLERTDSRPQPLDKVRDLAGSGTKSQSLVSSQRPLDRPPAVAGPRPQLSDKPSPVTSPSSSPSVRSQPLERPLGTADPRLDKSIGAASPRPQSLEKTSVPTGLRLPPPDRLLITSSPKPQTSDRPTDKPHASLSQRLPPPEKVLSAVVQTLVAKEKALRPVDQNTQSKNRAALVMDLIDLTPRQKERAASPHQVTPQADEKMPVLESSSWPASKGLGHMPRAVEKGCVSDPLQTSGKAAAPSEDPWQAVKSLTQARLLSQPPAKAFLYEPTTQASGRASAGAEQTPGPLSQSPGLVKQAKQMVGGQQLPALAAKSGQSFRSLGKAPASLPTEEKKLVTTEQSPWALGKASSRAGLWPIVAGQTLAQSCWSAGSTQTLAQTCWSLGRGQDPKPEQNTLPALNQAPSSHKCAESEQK
# experiment-notes: Inhibition of NSD1 (unknown origin) using biotin-labeled histone substrate assessed as residual activity at 50 uM in presence of [3H-Me]SAM by scintillation proximity assay relative to control
Readings of Activity for the listed compounds

{"columns": ["compound", "Activity [%]"],
 "data": [
  ["O=C(c1cccc(Br)c1)N1CCC2(CCNCC2)CC1", 96],
  ["CN1CCCC12CCCN(C(=O)c1cccc(Br)c1)C2 (stereo not given)", 101],
  ["O=C(c1cccc(Br)c1)N1C[C@@H]2CCN[C@@H]2C1", 93],
  ["CN1CCC2(CCCN(C(=O)c3cccc(Br)c3)C2)C1 (stereo not given)", 101],
  ["CN1CCCC2(CCCN(C(=O)c3cccc(Br)c3)C2)C1 (stereo not given)", 91],
  ["CN1CCCCC12CCCN(C(=O)c1cccc(Br)c1)C2 (stereo not given)", 82],
  ["CN1CC[C@H]2CN(C(=O)c3cccc(Br)c3)C[C@H]21", 96],
  ["CN1CCC[C@@H]2CN(C(=O)c3cccc(Br)c3)C[C@@H]21", 94],
  ["O=C(c1cccc(Br)c1)N1CCC[C@@H]2CNC[C@@H]21", 98],
  ["O=C(c1cccc(Br)c1)N1CCC2CNCC2C1 (stereo not given)", 93],
  ["O=C(c1cccc(Br)c1)N1C[C@@H]2CC3CCCCN3[C@@H]2C1 (stereo not given in full)", 95],
  ["O=C(c1cccc(Br)c1)N1CCCC2(CCNCC2)C1", 92],
  ["O=C(c1cccc(Br)c1)N1CC[C@@H]2[C@@H](CC3CCCCN32)C1 (stereo not given in full)", 93],
  ["O=C(c1cccc(Br)c1)N1CCCC2(CCCCN2)C1 (stereo not given)", 109],
  ["CN1CCC2(CC1)CCN(C(=O)c1cccc(Br)c1)CC2", 96]
]}

====

Readings of Activity for the listed compounds
# target-of-assay: UniProt Q4FZB7
# Sequence (Q4FZB7 whole entry, looked up): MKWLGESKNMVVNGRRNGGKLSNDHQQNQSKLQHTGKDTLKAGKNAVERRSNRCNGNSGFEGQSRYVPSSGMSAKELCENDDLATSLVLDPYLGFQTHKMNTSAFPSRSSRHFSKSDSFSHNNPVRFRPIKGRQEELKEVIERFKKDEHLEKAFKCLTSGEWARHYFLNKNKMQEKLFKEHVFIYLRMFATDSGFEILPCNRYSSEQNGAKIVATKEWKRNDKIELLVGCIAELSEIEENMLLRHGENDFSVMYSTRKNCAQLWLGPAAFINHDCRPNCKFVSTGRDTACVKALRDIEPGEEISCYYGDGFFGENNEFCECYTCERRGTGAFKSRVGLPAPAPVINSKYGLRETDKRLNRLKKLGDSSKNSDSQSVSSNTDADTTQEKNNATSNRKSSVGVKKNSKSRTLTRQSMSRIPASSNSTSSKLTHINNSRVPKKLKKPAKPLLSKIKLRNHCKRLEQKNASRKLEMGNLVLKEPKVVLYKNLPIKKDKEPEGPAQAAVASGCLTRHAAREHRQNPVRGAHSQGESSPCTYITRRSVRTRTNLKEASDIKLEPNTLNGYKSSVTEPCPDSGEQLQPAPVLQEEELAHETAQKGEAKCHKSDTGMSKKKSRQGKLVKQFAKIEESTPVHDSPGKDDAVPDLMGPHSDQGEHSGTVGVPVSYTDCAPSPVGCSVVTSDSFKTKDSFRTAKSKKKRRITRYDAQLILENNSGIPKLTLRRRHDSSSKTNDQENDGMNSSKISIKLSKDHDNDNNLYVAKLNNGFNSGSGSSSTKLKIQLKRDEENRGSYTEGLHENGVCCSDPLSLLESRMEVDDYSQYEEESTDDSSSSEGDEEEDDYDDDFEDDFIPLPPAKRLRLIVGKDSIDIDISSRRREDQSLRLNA
# experiment-notes: Inhibition of SUV420H1 (unknown origin) using biotin-labeled histone substrate assessed as residual activity at 50 uM in presence of [3H-Me]SAM by scintillation proximity assay relative to control

{"columns": ["compound", "unit-annotation", "Activity"],
 "data": [
  ["O=C(c1cccc(Br)c1)N1C[C@H]2CCCN[C@H]2C1", "%", 105],
  ["CN1CCC2(CC1)CCN(C(=O)c1cccc(Br)c1)CC2", "%", 103],
  ["C[N+]1(C)CCCCC12CCN(C(=O)c1cccc(Br)c1)CC2", "%", 99],
  ["O=C(c1cccc(Br)c1)N1CCC[C@@H]2CNC[C@@H]21", "%", 84],
  ["CN1CCCC12CCCN(C(=O)c1cccc(Br)c1)C2 (stereo not drawn)", "%", 108],
  ["O=C(c1cccc(Br)c1)N1C[C@@H]2CC3CCCCN3[C@@H]2C1 (stereo partly drawn)", "%", 102],
  ["CN1CCCCC12CCN(C(=O)c1cccc(Br)c1)CC2", "%", 104],
  ["CN1CCCC2(CCCN2C(=O)c2cccc(Br)c2)C1 (stereo not drawn)", "%", 101]
]}

====

Readings of Activity for the listed molecules
# target-of-assay: Histone-lysine N-methyltransferase SUV39H1 (Homo sapiens)
# experiment-notes: Inhibition of SUV39H1 (unknown origin) using biotin-labeled histone substrate assessed as residual activity at 50 uM in presence of [3H-Me]SAM by scintillation proximity assay relative to control

{"columns": ["molecule", "Activity"],
 "data": [
  ["CN1CCCCC12CCN(C(=O)c1cccc(Br)c1)CC2", "103%"],
  ["CN1CCCC2(CCCN(C(=O)c3cccc(Br)c3)C2)C1 (centres undefined)", "97%"],
  ["CN1CCC[C@@H]2CN(C(=O)c3cccc(Br)c3)C[C@@H]21", "103%"],
  ["O=C(c1cccc(Br)c1)N1C[C@@H]2CC3CCCN3[C@@H]2C1 (some centres undefined)", "99%"]
]}

====

# target-of-assay: Histone-lysine N-methyltransferase, H3 lysine-79 specific (Homo sapiens) (UniProt Q8TEK3)
# Sequence (Q8TEK3 whole entry, looked up): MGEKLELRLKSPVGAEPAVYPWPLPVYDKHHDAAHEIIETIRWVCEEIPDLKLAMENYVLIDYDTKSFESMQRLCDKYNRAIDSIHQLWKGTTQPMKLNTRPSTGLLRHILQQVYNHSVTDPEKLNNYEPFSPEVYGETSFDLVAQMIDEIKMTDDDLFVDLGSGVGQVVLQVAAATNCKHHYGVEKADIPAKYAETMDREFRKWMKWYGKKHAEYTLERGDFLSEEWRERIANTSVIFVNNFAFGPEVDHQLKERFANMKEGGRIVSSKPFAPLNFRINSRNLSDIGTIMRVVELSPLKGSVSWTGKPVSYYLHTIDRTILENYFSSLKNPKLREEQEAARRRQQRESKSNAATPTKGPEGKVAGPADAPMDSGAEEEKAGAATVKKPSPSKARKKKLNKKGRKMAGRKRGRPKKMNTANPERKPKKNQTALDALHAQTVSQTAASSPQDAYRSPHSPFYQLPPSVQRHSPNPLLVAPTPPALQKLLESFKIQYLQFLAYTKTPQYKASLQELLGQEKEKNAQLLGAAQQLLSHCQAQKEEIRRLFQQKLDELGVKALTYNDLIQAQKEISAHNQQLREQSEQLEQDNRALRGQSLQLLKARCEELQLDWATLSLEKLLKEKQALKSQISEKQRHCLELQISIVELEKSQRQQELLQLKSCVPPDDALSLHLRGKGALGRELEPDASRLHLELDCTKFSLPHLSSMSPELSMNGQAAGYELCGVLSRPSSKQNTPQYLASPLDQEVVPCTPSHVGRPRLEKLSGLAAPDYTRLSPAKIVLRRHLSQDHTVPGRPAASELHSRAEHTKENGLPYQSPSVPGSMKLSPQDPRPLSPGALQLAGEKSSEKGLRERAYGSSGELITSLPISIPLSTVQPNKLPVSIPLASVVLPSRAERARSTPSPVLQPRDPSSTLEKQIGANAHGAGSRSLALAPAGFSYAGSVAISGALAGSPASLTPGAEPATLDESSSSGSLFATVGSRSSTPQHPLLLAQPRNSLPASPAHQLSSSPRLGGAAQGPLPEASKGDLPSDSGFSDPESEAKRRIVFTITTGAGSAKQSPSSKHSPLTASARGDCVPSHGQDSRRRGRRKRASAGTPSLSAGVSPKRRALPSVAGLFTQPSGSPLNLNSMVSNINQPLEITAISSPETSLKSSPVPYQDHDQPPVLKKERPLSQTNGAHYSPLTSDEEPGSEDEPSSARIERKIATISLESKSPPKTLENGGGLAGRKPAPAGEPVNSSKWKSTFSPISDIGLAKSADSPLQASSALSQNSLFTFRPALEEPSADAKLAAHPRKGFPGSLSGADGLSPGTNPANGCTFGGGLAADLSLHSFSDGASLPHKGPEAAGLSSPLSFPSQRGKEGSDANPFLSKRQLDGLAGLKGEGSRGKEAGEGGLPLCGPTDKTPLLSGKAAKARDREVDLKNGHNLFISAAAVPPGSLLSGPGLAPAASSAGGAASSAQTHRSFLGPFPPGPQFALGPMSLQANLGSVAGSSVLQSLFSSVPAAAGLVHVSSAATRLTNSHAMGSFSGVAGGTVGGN
# experiment-notes: Inhibition of DOT1L (unknown origin) using biotin-labeled histone substrate assessed as residual activity at 50 uM in presence of [3H-Me]SAM by scintillation proximity assay relative to control

{"columns": ["compound", "Activity"],
 "data": [
  ["CN1CCC[C@@H]2CN(C(=O)c3cccc(Br)c3)C[C@@H]21", "97%"],
  ["O=C(c1cccc(Br)c1)N1CC[C@@H]2[C@@H](CC3CCCCN32)C1 (stereo partly specified)", "105%"],
  ["C[N+]1(C)CCCCC12CCN(C(=O)c1cccc(Br)c1)CC2", "96%"],
  ["CN1CCC2(CCCN2C(=O)c2cccc(Br)c2)CC1", "97%"],
  ["CN1CCCC12CCN(C(=O)c1cccc(Br)c1)CC2", "100%"],
  ["CN1CCCCC12CCCN(C(=O)c1cccc(Br)c1)C2 (stereo unspecified)", "100%"]
]}

====

# target-of-assay: Histone-lysine N-methyltransferase NSD3 (Homo sapiens)
# Sequence (whole entry): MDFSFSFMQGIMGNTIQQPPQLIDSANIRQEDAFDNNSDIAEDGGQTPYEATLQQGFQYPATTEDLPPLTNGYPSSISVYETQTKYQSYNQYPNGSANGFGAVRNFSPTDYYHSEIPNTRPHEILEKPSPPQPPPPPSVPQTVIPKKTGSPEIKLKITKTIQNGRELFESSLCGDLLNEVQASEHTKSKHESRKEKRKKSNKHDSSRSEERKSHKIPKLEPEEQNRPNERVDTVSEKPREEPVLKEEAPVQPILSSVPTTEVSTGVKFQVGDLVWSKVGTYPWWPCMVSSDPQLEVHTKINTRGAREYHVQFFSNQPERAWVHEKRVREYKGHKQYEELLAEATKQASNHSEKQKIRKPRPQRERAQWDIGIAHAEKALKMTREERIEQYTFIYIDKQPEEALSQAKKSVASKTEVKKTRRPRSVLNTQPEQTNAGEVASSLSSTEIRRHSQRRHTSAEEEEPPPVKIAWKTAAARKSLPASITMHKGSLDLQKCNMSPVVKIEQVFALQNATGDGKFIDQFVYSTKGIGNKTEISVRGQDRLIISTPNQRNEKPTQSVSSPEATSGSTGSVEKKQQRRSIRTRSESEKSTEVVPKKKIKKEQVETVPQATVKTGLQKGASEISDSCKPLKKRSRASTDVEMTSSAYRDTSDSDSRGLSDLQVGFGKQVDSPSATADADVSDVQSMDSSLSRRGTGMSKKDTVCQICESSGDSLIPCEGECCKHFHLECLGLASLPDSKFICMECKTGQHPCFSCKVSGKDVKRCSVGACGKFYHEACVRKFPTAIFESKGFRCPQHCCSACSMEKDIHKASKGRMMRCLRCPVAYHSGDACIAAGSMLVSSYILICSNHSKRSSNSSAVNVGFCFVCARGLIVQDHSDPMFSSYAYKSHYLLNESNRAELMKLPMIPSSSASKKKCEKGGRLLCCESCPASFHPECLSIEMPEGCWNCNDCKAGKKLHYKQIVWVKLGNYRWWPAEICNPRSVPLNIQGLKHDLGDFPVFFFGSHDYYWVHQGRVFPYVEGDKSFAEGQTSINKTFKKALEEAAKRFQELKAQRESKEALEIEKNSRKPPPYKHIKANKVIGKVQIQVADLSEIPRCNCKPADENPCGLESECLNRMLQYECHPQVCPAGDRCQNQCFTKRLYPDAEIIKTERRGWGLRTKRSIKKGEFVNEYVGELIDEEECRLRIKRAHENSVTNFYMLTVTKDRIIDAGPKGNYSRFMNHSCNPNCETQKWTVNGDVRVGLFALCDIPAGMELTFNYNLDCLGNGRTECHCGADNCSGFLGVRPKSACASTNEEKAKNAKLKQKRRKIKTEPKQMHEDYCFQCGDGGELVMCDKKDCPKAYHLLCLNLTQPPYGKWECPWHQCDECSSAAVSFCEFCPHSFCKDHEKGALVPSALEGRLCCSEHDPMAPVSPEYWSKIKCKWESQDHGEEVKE
# experiment-notes: Inhibition of NSD3 (unknown origin) using biotin-labeled histone substrate assessed as residual activity at 50 uM in presence of [3H-Me]SAM by scintillation proximity assay relative to control
measured-property: Activity (%)

{"columns": ["compound", "target-of-assay", "measured-property", "observed-result"],
 "data": [
  ["CN1CCCC12CCCN(C(=O)c1cccc(Br)c1)C2 (stereo not drawn)", "Histone-lysine N-methyltransferase NSD3 (Homo sapiens)", "Activity", 95],
  ["O=C(c1cccc(Br)c1)N1CCC2CNCC2C1 (stereo not drawn)", "Histone-lysine N-methyltransferase NSD3 (Homo sapiens)", "Activity", 102],
  ["CN1CCCC2(CCCN(C(=O)c3cccc(Br)c3)C2)C1 (stereo not drawn)", "Histone-lysine N-methyltransferase NSD3 (Homo sapiens)", "Activity", 99],
  ["CN1CCC[C@@H]2CN(C(=O)c3cccc(Br)c3)C[C@@H]21", "Histone-lysine N-methyltransferase NSD3 (Homo sapiens)", "Activity", 98],
  ["CN1CCC2(CC1)CCN(C(=O)c1cccc(Br)c1)CC2", "Histone-lysine N-methyltransferase NSD3 (Homo sapiens)", "Activity", 110],
  ["CN1CCCCC12CCN(C(=O)c1cccc(Br)c1)CC2", "Histone-lysine N-methyltransferase NSD3 (Homo sapiens)", "Activity", 97],
  ["O=C(c1cccc(Br)c1)N1C[C@@H]2CC3CCCN3[C@@H]2C1 (stereo partly drawn)", "Histone-lysine N-methyltransferase NSD3 (Homo sapiens)", "Activity", 106],
  ["CN1C[C@H]2CCCN(C(=O)c3cccc(Br)c3)[C@H]2C1", "Histone-lysine N-methyltransferase NSD3 (Homo sapiens)", "Activity", 92],
  ["O=C(c1cccc(Br)c1)N1CC[C@@H]2[C@@H](CC3CCCCN32)C1 (stereo partly drawn)", "Histone-lysine N-methyltransferase NSD3 (Homo sapiens)", "Activity", 98],
  ["CN1CCCC2(CCCN2C(=O)c2cccc(Br)c2)C1 (stereo not drawn)", "Histone-lysine N-methyltransferase NSD3 (Homo sapiens)", "Activity", 102],
  ["O=C(c1cccc(Br)c1)N1CCCC2(CCCCN2)C1 (stereo not drawn)", "Histone-lysine N-methyltransferase NSD3 (Homo sapiens)", "Activity", 111],
  ["C[N+]1(C)CCCCC12CCN(C(=O)c1cccc(Br)c1)CC2", "Histone-lysine N-methyltransferase NSD3 (Homo sapiens)", "Activity", 99],
  ["O=C(c1cccc(Br)c1)N1CCC[C@@H]2CNC[C@@H]21", "Histone-lysine N-methyltransferase NSD3 (Homo sapiens)", "Activity", 106],
  ["CN1CCC2(CCCN2C(=O)c2cccc(Br)c2)CC1", "Histone-lysine N-methyltransferase NSD3 (Homo sapiens)", "Activity", 96],
  ["CN1CCC2(CCCN(C(=O)c3cccc(Br)c3)C2)C1 (stereo not drawn)", "Histone-lysine N-methyltransferase NSD3 (Homo sapiens)", "Activity", 104],
  ["O=C(c1cccc(Br)c1)N1CC[C@H]2NCC[C@H]2C1", "Histone-lysine N-methyltransferase NSD3 (Homo sapiens)", "Activity", 107],
  ["CN1CC[C@H]2CN(C(=O)c3cccc(Br)c3)C[C@H]21", "Histone-lysine N-methyltransferase NSD3 (Homo sapiens)", "Activity", 92],
  ["CN1CCCCC12CCCN(C(=O)c1cccc(Br)c1)C2 (stereo not drawn)", "Histone-lysine N-methyltransferase NSD3 (Homo sapiens)", "Activity", 100]
]}
